Assay target: human acetyl-CoA carboxylase 2 (ACC2) (Homo sapiens)
Construct: The cDNA encoding amino acids 144 to 2458 of human acetyl-CoA carboxylase 2; made in house; host or cells: Sf9 insect cells (baculovirus, pFastBac1)
Procedure summary: Acetyl-CoA carboxylase enzyme assay (malonyl-CoA formation by LC/MS/MS)
Type: biochemical
Experimental context: recombinant human ACC2 (aa 144-2458); read-out: IC50 ACC2
Observation type: IC50

>  <Compound>
CC(C)OC(=O)c1ccc(NS(=O)(=O)c2ccc3nc(-c4cccc(O)c4)[nH]c3c2)cc1

>  <Assay value>
1050 nM

$$$$
>  <Compound>
O=C(NCCc1cccnc1)[C@H]1CC[C@H](NS(=O)(=O)c2ccc3[nH]c(-c4ccccc4)nc3c2)CC1

>  <Assay value>
283 nM

$$$$
>  <Compound>
CC(NC(=O)[C@H]1CC[C@H](NS(=O)(=O)c2cnc3ccccc3c2)CC1)c1cccc(F)c1 (some centres unmarked)

>  <Assay value>
450 nM

$$$$
>  <Compound>
COC(=O)CCc1ccc(-c2cc3ccc(S(=O)(=O)N[C@H]4CC[C@H](C(=O)N5CCOC[C@@H]5C5CC5)CC4)cc3n2C)cc1

>  <Assay value>
< 10 nM

$$$$
>  <Compound>
O=C([C@H]1CC[C@H](NS(=O)(=O)c2ccc3c(c2)CCCN3)CC1)N1CCNCC1c1ccccc1 (some centres unmarked)

>  <Assay value>
120 nM

$$$$
>  <Compound>
C[C@@H](NC(=O)[C@H]1CC[C@H](NS(=O)(=O)c2cnc3c(c2)N(C)C2CCCCC2N3C)CC1)c1ccc(F)cc1 (some centres unmarked)

>  <Assay value>
28 nM

$$$$
>  <Compound>
Cn1c(-c2ccc(CCC(=O)O)cc2)cc2ccc(S(=O)(=O)N[C@H]3CC[C@H](C(=O)N4CCC[C@@H]4c4ccc(F)cc4)CC3)cc21

>  <Assay value>
115 nM

$$$$
>  <Compound>
COC(=O)C1CCc2ccc(S(=O)(=O)N[C@H]3CC[C@H](C(=O)N[C@H](C)c4ccc(F)cc4)CC3)cc2N1C (some centres unmarked)

>  <Assay value>
60 nM

$$$$
>  <Compound>
Cc1ccccc1-c1nc2cc(S(=O)(=O)N[C@H]3CC[C@H](C(=O)N[C@H](C)c4ccc(F)cc4)CC3)cnc2o1

>  <Assay value>
590 nM

$$$$
>  <Compound>
CC(C)OC(=O)c1ccc(NS(=O)(=O)c2ccc3[nH]c(Nc4cccc([N+](=O)[O-])c4)nc3c2)cc1

>  <Assay value>
77 nM

$$$$
>  <Compound>
COCCc1ccc(-c2cc3ccc(S(=O)(=O)N[C@H]4CC[C@H](C(=O)N5CCOC[C@@H]5C5CC5)CC4)cc3[nH]2)cc1

>  <Assay value>
< 10 nM

$$$$
>  <Compound>
C[C@@H](NC(=O)[C@H]1CC[C@H](NS(=O)(=O)c2ccc3cc(-c4ccccc4)n(C)c3c2)CC1)c1ccc(F)cc1

>  <Assay value>
< 10 nM

$$$$
>  <Compound>
CC(C)OC(=O)c1ccc(NS(=O)(=O)c2ccc3nc(-c4ccc(F)cc4)[nH]c3c2)cc1

>  <Assay value>
2110 nM

$$$$
>  <Compound>
C[C@@H](NC(=O)[C@H]1CC[C@H](NS(=O)(=O)c2cnc3ccccc3c2)CC1)c1ccc(F)cc1

>  <Assay value>
252 nM

$$$$

====

Entries and their pIC50
Assay target: human acetyl-CoA carboxylase 2 (ACC2) (Homo sapiens, UniProt O00763)
Construct: The cDNA encoding amino acids 144 to 2458 of human acetyl-CoA carboxylase 2; made in house; host or cells: Sf9 insect cells (baculovirus, pFastBac1)
Sequence (O00763 144-2458): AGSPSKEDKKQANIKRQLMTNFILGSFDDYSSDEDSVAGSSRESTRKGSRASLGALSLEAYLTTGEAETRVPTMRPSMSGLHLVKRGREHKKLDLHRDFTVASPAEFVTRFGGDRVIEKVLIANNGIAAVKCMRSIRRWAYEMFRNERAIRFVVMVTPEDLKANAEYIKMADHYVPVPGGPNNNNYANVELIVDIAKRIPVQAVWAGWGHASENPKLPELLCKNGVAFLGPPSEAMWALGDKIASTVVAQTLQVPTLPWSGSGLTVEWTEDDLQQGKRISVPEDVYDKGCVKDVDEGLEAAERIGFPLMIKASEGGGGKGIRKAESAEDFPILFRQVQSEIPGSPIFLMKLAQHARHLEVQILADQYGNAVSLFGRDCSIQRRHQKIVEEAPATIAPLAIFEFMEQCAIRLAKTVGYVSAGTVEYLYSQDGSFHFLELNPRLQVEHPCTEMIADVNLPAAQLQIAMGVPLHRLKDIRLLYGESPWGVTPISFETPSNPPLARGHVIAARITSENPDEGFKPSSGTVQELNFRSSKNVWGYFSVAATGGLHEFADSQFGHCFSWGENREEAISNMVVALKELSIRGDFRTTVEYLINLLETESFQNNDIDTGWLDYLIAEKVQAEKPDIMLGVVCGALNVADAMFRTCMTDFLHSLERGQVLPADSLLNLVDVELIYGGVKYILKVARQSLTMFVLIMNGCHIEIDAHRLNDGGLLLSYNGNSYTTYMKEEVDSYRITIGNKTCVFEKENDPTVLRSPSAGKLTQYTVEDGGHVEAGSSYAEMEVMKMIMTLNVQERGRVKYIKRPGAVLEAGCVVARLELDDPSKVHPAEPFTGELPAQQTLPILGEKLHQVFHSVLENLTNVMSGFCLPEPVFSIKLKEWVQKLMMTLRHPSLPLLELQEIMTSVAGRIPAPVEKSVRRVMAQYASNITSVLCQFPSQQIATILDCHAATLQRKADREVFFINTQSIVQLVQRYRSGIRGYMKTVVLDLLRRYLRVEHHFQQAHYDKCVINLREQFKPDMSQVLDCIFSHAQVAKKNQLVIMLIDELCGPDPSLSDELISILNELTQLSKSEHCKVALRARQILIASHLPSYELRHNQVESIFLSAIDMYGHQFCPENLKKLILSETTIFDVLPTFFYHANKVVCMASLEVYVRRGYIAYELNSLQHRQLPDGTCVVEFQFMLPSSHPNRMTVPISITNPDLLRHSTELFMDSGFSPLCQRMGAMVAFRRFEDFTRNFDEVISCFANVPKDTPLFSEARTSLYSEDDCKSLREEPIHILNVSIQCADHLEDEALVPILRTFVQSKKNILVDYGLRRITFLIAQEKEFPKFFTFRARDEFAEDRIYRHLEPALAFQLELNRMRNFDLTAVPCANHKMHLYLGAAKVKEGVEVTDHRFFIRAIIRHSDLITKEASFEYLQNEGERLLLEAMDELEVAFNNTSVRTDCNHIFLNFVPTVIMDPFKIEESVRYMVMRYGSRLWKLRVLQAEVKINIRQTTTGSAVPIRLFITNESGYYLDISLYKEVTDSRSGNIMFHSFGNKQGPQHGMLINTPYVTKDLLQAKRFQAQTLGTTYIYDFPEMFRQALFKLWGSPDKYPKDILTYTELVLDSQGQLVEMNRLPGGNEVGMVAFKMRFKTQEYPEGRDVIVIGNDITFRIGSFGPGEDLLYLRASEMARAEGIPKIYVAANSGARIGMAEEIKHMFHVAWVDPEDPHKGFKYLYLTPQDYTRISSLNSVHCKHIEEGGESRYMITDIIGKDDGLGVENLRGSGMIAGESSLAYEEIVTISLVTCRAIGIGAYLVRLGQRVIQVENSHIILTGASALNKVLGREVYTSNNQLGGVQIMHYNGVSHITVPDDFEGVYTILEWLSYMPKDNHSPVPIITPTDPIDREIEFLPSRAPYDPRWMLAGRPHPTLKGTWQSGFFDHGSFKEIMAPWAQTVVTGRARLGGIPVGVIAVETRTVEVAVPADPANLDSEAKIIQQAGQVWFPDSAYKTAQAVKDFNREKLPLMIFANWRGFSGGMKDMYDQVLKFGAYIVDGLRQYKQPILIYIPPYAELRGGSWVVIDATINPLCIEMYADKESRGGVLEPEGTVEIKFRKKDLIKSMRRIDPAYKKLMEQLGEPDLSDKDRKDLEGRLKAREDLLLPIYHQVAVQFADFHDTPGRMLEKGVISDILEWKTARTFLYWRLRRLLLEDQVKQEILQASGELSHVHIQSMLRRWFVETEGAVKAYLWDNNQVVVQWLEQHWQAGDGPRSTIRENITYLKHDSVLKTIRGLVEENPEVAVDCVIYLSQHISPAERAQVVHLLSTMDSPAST
Procedure summary: Acetyl-CoA carboxylase enzyme assay (malonyl-CoA formation by LC/MS/MS)
Format: biochemical
Experimental context: recombinant human ACC2 (aa 144-2458); read-out: IC50 ACC2
pIC50: −log10 of the molar value.

>  <Compound>
CC(C)CNC(=O)[C@H]1CC[C@H](NS(=O)(=O)c2ccc3[nH]c(-c4ccccc4)nc3c2)CC1 [Example 629]

>  <Limit sign>
=

>  <pIC50>
5.76

$$$$
>  <Compound>
COC(=O)CN1CCCc2ccc(S(=O)(=O)N[C@H]3CC[C@H](C(=O)N[C@H](C)c4ccc(F)cc4)CC3)cc21 [Example 164]

>  <Limit sign>
=

>  <pIC50>
6.46

$$$$
>  <Compound>
C[C@@H](NC(=O)[C@H]1CC[C@H](NS(=O)(=O)c2ccc3c(c2)N(CC(=O)O)CCC3)CC1)c1ccc(F)cc1 [Example 166]

>  <Limit sign>
=

>  <pIC50>
6.04

$$$$
>  <Compound>
Cn1c(-c2ccc(CCC(=O)O)cc2)cc2ccc(S(=O)(=O)N[C@H]3CC[C@H](C(=O)N4CCC[C@@H]4C(C)(C)C)CC3)cc21 [Example 400]

>  <Limit sign>
>

>  <pIC50>
8.00

$$$$
>  <Compound>
Cc1ccccc1-c1cc2ccc(S(=O)(=O)N[C@H]3CC[C@H](C(=O)N4CCCC(C(F)(F)F)C4)CC3)cc2[nH]1 (stereo partly drawn) [Example 321]

>  <Limit sign>
=

>  <pIC50>
6.60

$$$$
>  <Compound>
Cn1c(-c2ccc(CCC(=O)O)cc2)cc2ccc(S(=O)(=O)N[C@H]3CC[C@H](C(=O)N4CCCC4C(C)(C)C)CC3)cc21 (stereo partly drawn) [Example 395]

>  <Limit sign>
>

>  <pIC50>
8.00

$$$$

====

# IC50 annotations
Assay target: human acetyl-CoA carboxylase 2 (ACC2) (Homo sapiens, UniProt O00763)
Construct: The cDNA encoding amino acids 144 to 2458 of human acetyl-CoA carboxylase 2; made in house; host or cells: Sf9 insect cells (baculovirus, pFastBac1)
Procedure summary: Acetyl-CoA carboxylase enzyme assay (malonyl-CoA formation by LC/MS/MS)
Type: biochemical
Experimental context: recombinant human ACC2 (aa 144-2458); read-out: IC50 ACC2
Observation type: IC50

>  <Smiles structure>
COCc1ccc(-c2[nH]c3cc(S(=O)(=O)N[C@H]4CC[C@H](C(=O)N5CCOC[C@@H]5C5CC5)CC4)ccc3c2Cl)cc1

>  <Assay target>
human acetyl-CoA carboxylase 2 (ACC2) (Homo sapiens, UniProt O00763)

>  <Assay value>
< 10 nM

$$$$
>  <Smiles structure>
C[C@@H](NC(=O)[C@H]1CC[C@H](NS(=O)(=O)c2ccc3[nH]c(Nc4ccc(N5CCOCC5)cc4)nc3c2)CC1)c1ccccc1

>  <Assay target>
human acetyl-CoA carboxylase 2 (ACC2) (Homo sapiens, UniProt O00763)

>  <Assay value>
< 10 nM

$$$$
>  <Smiles structure>
O=C([C@H]1CC[C@H](NS(=O)(=O)c2ccc3c(c2)oc2ccccc23)CC1)N1CCNC[C@@H]1c1ccccc1

>  <Assay target>
human acetyl-CoA carboxylase 2 (ACC2) (Homo sapiens, UniProt O00763)

>  <Assay value>
20 nM

$$$$
>  <Smiles structure>
Cn1c(-c2ccc(CCC(=O)O)cc2)cc2ccc(S(=O)(=O)N[C@H]3CC[C@H](C(=O)N4CCC[C@H]4c4ccc(F)cc4)CC3)cc21

>  <Assay target>
human acetyl-CoA carboxylase 2 (ACC2) (Homo sapiens, UniProt O00763)

>  <Assay value>
< 10 nM

$$$$
>  <Smiles structure>
C[C@@H](NC(=O)[C@H]1CC[C@H](NS(=O)(=O)c2ccc3c(c2)OCCN3C)CC1)c1ccc(F)cc1

>  <Assay target>
human acetyl-CoA carboxylase 2 (ACC2) (Homo sapiens, UniProt O00763)

>  <Assay value>
16 nM

$$$$
>  <Smiles structure>
C[C@@H]1CN(C(=O)[C@H]2CC[C@H](NS(=O)(=O)c3ccc4c(Cl)c(-c5ccccc5)[nH]c4c3)CC2)C[C@H](C)O1

>  <Assay target>
human acetyl-CoA carboxylase 2 (ACC2) (Homo sapiens, UniProt O00763)

>  <Assay value>
< 10 nM

$$$$

====

Assay target: human acetyl-CoA carboxylase 2 (ACC2) (Homo sapiens, UniProt O00763)
Construct: The cDNA encoding amino acids 144 to 2458 of human acetyl-CoA carboxylase 2; made in house; host or cells: Sf9 insect cells (baculovirus, pFastBac1)
Procedure summary: Acetyl-CoA carboxylase enzyme assay (malonyl-CoA formation by LC/MS/MS)
Format: biochemical
Experimental context: recombinant human ACC2 (aa 144-2458); read-out: IC50 ACC2
Listing of entries alongside the reported IC50.

>  <Compound>
CC(C)(C)OC(=O)N1CCN(C(=O)[C@H]2CC[C@H](NS(=O)(=O)c3ccc4c(c3)CCC4)CC2)[C@@H](c2ccccc2)C1 [Example 241]

>  <Unit label>
nM

>  <IC50>
25

$$$$
>  <Compound>
CC(C)(C)OC(=O)N1CCN(c2ccc(-c3nc4cc(S(=O)(=O)N[C@H]5CC[C@H](C(=O)N6CCOCC6)CC5)ccc4[nH]3)cc2)CC1 [Example 103]

>  <Unit label>
nM

>  <IC50>
38

$$$$
>  <Compound>
Cn1c(C2CC2)c(Cl)c2ccc(S(=O)(=O)N[C@H]3CC[C@H](C(=O)N4CCN[C@@H](C(F)(F)F)C4)CC3)cc21 [Example 362]

>  <Unit label>
nM

>  <IC50>
75

$$$$
